Biological target: Phosphatidylinositol 4,5-bisphosphate 3-kinase catalytic subunit alpha isoform (Homo sapiens, UniProt P42336)
Sequence (P42336 whole entry, canonical isoform): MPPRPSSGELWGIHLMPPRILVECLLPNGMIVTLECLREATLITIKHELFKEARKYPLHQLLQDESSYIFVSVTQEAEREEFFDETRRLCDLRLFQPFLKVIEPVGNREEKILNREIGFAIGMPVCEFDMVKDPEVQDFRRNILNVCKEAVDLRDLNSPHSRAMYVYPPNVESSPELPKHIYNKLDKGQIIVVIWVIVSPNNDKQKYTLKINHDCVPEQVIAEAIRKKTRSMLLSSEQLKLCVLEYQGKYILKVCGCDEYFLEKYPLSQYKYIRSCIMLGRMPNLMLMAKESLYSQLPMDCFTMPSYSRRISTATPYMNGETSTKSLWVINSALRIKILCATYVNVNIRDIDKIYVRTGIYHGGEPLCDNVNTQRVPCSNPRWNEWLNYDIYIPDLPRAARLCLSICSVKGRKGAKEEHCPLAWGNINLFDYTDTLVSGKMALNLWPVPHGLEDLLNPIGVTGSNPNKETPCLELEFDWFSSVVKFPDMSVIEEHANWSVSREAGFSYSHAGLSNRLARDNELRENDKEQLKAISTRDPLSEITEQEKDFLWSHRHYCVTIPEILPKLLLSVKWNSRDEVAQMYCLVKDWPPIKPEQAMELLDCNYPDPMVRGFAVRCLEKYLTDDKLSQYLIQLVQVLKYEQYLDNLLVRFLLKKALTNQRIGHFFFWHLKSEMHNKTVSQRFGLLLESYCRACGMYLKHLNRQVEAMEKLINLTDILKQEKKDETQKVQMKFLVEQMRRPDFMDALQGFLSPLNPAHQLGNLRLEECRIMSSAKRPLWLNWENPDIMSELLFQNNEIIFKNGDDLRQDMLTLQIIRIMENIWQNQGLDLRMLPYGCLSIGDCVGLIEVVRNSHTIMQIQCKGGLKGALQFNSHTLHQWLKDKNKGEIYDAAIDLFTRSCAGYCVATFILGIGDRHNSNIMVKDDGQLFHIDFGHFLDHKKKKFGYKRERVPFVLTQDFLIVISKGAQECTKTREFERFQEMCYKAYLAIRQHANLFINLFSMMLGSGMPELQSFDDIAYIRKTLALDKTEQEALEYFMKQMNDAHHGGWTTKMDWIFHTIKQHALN
Assay: Inhibition of PI3K expressed in Escherichia coli by microtiter plate-based fluorescence polarization assay
PROPERTY LABEL: IC50 (nM)

COC[C@H]1OC(=O)/C(=C/N(C)CCN(C)C)C2=C(O)C(=O)C3=C([C@H](OC(C)=O)C[C@]4(C)[C@@H](O)CC[C@@H]34)[C@]21C	8.4
COC[C@H]1OC(=O)/C(=C/N2CCN(C3CCCCC3)CC2)C2=C(O)C(=O)C3=C([C@H](OC(C)=O)C[C@]4(C)[C@@H](O)CC[C@@H]34)[C@]21C	43
COC[C@H]1OC(=O)/C(=C/N2CCC(=O)CC2)C2=C(O)C(=O)C3=C([C@H](OC(C)=O)C[C@]4(C)[C@@H](O)CC[C@@H]34)[C@]21C	60
CCN(CC)CCN(C)/C=C1/C(=O)O[C@H](COC)[C@@]2(C)C1=C(O)C(=O)C1=C2[C@H](OC(C)=O)C[C@]2(C)[C@@H](O)CC[C@@H]12	50
CCCCN(C)/C=C1/C(=O)O[C@H](COC)[C@@]2(C)C1=C(O)C(=O)C1=C2[C@H](OC(C)=O)C[C@]2(C)[C@@H](O)CC[C@@H]12	635

A: COC[C@H]1OC(=O)/C(=C/N(CCCN(C)C)CCCN(C)C)C2=C(O)C(=O)C3=C([C@H](OC(C)=O)C[C@]4(C)[C@@H](O)CC[C@@H]34)[C@]21C
B: COC[C@H]1OC(=O)/C(=C/N2CCCCC2)C2=C(O)C(=O)C3=C([C@H](OC(C)=O)C[C@]4(C)[C@@H](O)CC[C@@H]34)[C@]21C
Request: Would you mind telling me which has the lower recorded IC50 between A and B ? In your reply, give the label of the chosen option.
Result: A

Values compiled from ChEMBL document CHEMBL1143164.
